Protocol Notes: Half-life in mouse at 10 mg/kg, po administered as single dose
Assay type: ADME, organism-based
Test Parameters: in vivo
Can you tell me half-life for the items I'm about to list?

INSERT INTO measurements (smiles_representation, measured_metric, result) VALUES
  ('COc1cc2c(cc1N1CCOCC1)C[C@@H](C(C)C)n1cc(C(=O)O)c(=O)cc1-2', 'half-life', '2.09 h');

Then there is this molecule:
Report half-life for `COCCCOc1cc2c(cc1OC)-c1cc(=O)c(C(=O)O)cn1[C@H](C(C)C)C2` 2.39 h

###

Protocol Notes: Cytotoxicity against mouse HT-22 cells assessed as cell viability at 30 uM relative to control
Type: toxicity, cell-based
Test Parameters: read-out: Activity
Measured Metric: viability at 30 µM (%)
Answers are plain numbers, in %.

State its viability at 30 µM: `COc1cc2c(cc1OCCCN1CCC3(C1)OCCO3)C[C@@H](C(C)C)n1cc(C(=O)O)c(=O)cc1-2` 74.9

###

Test system: Hepatitis B virus
Protocol Notes: Antiviral activity against Hepatitis B virus assessed as inhibition of HbsAg level
Format: functional, organism-based
Please respond with reported IC50 for every item in the list.
Give bare numbers, in µM.

Here's what some known entries look like.
INSERT INTO assay_data (compound, number) VALUES
  ('COc1cc2c(cc1N1CCC3(C1)OCCO3)C[C@H](C(C)C)n1cc(C(=O)O)c(=O)cc1-2', 0.126),
  ('COc1cc2c(cc1OCCCN1CCC3(C1)OCCO3)C[C@@H](C(C)C)n1cc(C(=O)O)c(=O)cc1-2', 0.023),
  ('COc1cc2c(cc1N1CCC3(C1)OCCO3)C[C@@H](C(C)C)n1cc(C(=O)O)c(=O)cc1-2', 0.004),
  ('COc1cc2c(cc1OCCCN1CCC3(CCCO3)CC1)CC(C(C)C)n1cc(C(=O)O)c(=O)cc1-2 (stereo not given)', 0.062),
  ('COc1cc2c(cc1OCCCN1CCC3(C1)OCCO3)C[C@H](C(C)C)n1cc(C(=O)O)c(=O)cc1-2', 0.189),
  ('COc1cc2c(cc1OCCCN1CCC3(CCOC3)C1)CC(C(C)C)n1cc(C(=O)O)c(=O)cc1-2 (stereo not given)', 0.193),
  ('COCCCOc1cc2c(cc1OC)-c1cc(=O)c(C(=O)O)cn1[C@H](C(C)C)C2', 0.005),
  ('COc1cc2c(cc1N1CCC3(CC1)OCCO3)CC(C(C)C)n1cc(C(=O)O)c(=O)cc1-2 (stereo not given)', 0.012),
  ('COc1cc2c(cc1N1CC3COCC3C1)CC(C(C)C)n1cc(C(=O)O)c(=O)cc1-2 (stereo not given)', 0.014),
  ('COc1cc2c(cc1N1CCC3(CCOC3)C1)CC(C(C)C)n1cc(C(=O)O)c(=O)cc1-2 (stereo not given)', 0.005);

Lab note: each compound below needs its IC50 filled in.
1. COc1cc2c(cc1N1CCC3(CCCO3)CC1)CC(C(C)C)n1cc(C(=O)O)c(=O)cc1-2 (stereo not given)
2. COc1cc2c(cc1N1CCC3(CCOCC3)C1)C[C@@H](C(C)C)n1cc(C(=O)O)c(=O)cc1-2
3. COc1cc2c(cc1N1CCOCC1)C[C@H](C(C)C)n1cc(C(=O)O)c(=O)cc1-2
4. COc1cc2c(cc1N1CCC3(C1)OCCO3)CC(C(C)C)n1cc(C(=O)O)c(=O)cc1-2 (stereo not given)

1. 0.027
2. 0.005
3. 0.599
4. 0.0018

// each listed compound needs a value for IC50
1. COc1cc2c(cc1N1CCC(C(F)(F)F)CC1)CC(C(C)C)n1cc(C(=O)O)c(=O)cc1-2 (stereo not given)
2. COc1cc2c(cc1N1CCC3(CCOCC3)C1)CC(C(C)C)n1cc(C(=O)O)c(=O)cc1-2 (stereo not given)
3. COc1cc2c(cc1N1CCC(O)CC1)CC(C(C)C)n1cc(C(=O)O)c(=O)cc1-2 (stereo not given)
4. COc1cc2c(cc1N1CCOCC1)CC(C(C)C)n1cc(C(=O)O)c(=O)cc1-2 (stereo not given)
5. COc1cc2c(cc1N1CCOCC1)C[C@@H](C(C)C)n1cc(C(=O)O)c(=O)cc1-2
6. COc1cc2c(cc1OC1CCC3(CCOCC3)CC1)CC(C(C)C)n1cc(C(=O)O)c(=O)cc1-2 (stereo not given)
7. COc1cc2c(cc1N1CCC3(CCN(C(=O)OC(C)(C)C)CC3)C1)CC(C(C)C)n1cc(C(=O)O)c(=O)cc1-2 (stereo not given)
8. COc1cc2c(cc1N1CCC3(CCOCC3)C1)C[C@H](C(C)C)n1cc(C(=O)O)c(=O)cc1-2

1: 0.03; 2: 0.0006; 3: 0.041; 4: 0.008; 5: 0.023; 6: 0.151; 7: 0.016; 8: 0.1
